Listed below: IC50 values for each entry.
System: NCI-N87 cell
assayText: Cell proliferation inhibitory activity, Cell-Titer-Glo, NCI-N87
Assay type: cell-based, human
details: Homo sapiens, NCI-N87, 72 h; 3 days incubation
Method: Experiment object: to detect the inhibitory activity of the tested compound on cell proliferation. Experimental principle: the luciferase in the Cell-Titer-Glo reagent uses luciferin, oxygen and ATP as reaction substrates to produce oxyluciferin and release energy in the form of light. […] The cell plate was taken from the incubator and equilibrated at room temperature for 30 min. […] After 10 min, the plate was read on PerkinElmer Envision, and the […] reading time was set to 0.2 seconds.

molecule	IC50, nM
Cc1cc(Nc2ncnn3ccc(CN4CCC(N)CC4)c23)ccc1Oc1ccn2ncnc2c1	7
Cc1cc(Nc2ncnn3ccc(CN4[C@@H]5CC[C@H]4C[C@H](N)C5)c23)ccc1Oc1ccn2ncnc2c1	20
Cc1cc(Nc2ncnn3ccc(CN4CCC(O)CC4)c23)ccc1Oc1ccn2ncnc2c1	38
Cc1cc(Nc2ncnn3ccc(CN4CC(O)C4)c23)ccc1Oc1ccn2ncnc2c1	52
Cc1cc(Nc2ncnn3ccc(CC4CCC(N)CC4)c23)ccc1Oc1ccn2ncnc2c1 (stereo not drawn)	27
Cc1cc(Nc2ncnn3ccc(CN4C[C@H]5CC[C@@H](C4)[C@H]5N)c23)ccc1Oc1ccn2ncnc2c1	27

Sourced from patent US12030897B2
